Assay: Compound was tested for inhibitory activity against Endothelin-converting enzyme isolated from guinea pig lung membrane.
MEASURED_PARAMETER: IC50 (µM)
A number alone suffices; assume µM.

Task item: I am curious: what IC50 value has been reported for CC(C)CC(CP(O)(O)=C(Cc1ccc2ccccc2c1)NC(=O)OCc1ccccc1)C(=O)N[C@@H](Cc1c[nH]c2ccccc12)C(=O)O (stereo partly specified) ?
Reply: 3.3

----------
Assay: Inhibition of Endothelin-converting enzyme of guinea pig lung membrane
MEASURED_PARAMETER: log10 IC50 (log10 of the value in µM)
Would you kindly interpret these values as log10 of IC50 expressed in µM?

| MOLECULE | NUMBER |
| --- | --- |
| CC(C)C(CP(O)(O)=C(Cc1ccccc1)NC(=O)[C@H](CCCCNC(=O)OCc1ccccc1)NS(C)(=O)=O)C(=O)N[C@@H](Cc1c[nH]c2ccccc12)C(=O)O (stereo not given in full) | -0.41 |
| CC(C)CC(CP(O)(O)=C(Cc1ccccc1)NC(=O)[C@H](CC(C)C)NC(=O)OCc1ccccc1)C(=O)N[C@@H](Cc1c[nH]c2ccccc12)C(=O)O (stereo not given in full) | -0.80 |
| CC(C)CC(NC(=O)[C@H](CCCCNC(=O)OCc1ccccc1)NS(C)(=O)=O)=P(O)(O)CC(CC(C)C)C(=O)N[C@@H](Cc1c[nH]c2ccccc12)C(=O)O (stereo not given in full) | -1.40 |
| CC(C)C(CP(O)(O)=C(Cc1ccc2ccccc2c1)NC(=O)[C@H](CCCCNC(=O)OCc1ccccc1)NS(C)(=O)=O)C(=O)N[C@@H](Cc1c[nH]c2ccccc12)C(=O)O (stereo not given in full) | -0.10 |

Now for a further molecule.
Task item: I am curious: what log10 IC50 value has been reported for CC(C)CC(CP(O)(O)=C(Cc1ccc2ccccc2c1)NC(=O)[C@H](CCCCN)NS(C)(=O)=O)C(=O)N[C@@H](Cc1c[nH]c2ccccc12)C(=O)O (stereo not given in full) ?
Reply: -1.19
